// logP lookup, one value per entry

{"columns": ["compound", "logP"],
 "data": [
  ["CC(C)=CCOCC(Cn1cncn1)c1ccc(Cl)cc1Cl (stereo not drawn)", 3.91],
  ["Clc1ccc(C(COCC=Cc2ccccc2)Cn2cncn2)c(Cl)c1 (stereo not drawn)", 4.21],
  ["C#CCOCC(Cn1cncn1)c1ccc(Cl)cc1Cl (stereo not drawn)", 2.93],
  ["Clc1ccc(C(COCCCc2ccccc2)Cn2cncn2)c(Cl)c1 (stereo not drawn)", 4.77],
  ["C=C(C)COCC(Cn1cncn1)c1ccc(Cl)cc1Cl (stereo not drawn)", 3.72],
  ["Clc1ccc(C(COCc2ccccc2)Cn2cncn2)c(Cl)c1 (stereo not drawn)", 3.83],
  ["Clc1ccc(C(COCc2ccc3ccccc3c2)Cn2cncn2)c(Cl)c1 (stereo not drawn)", 4.48],
  ["Clc1ccc(COCC(Cn2cncn2)c2ccc(Cl)cc2Cl)c(Cl)c1 (stereo not drawn)", 4.71],
  ["Clc1ccc(C(COCc2cccs2)Cn2cncn2)c(Cl)c1 (stereo not drawn)", 4.42],
  ["O=[N+]([O-])c1ccc(COCC(Cn2cncn2)c2ccc(Cl)cc2Cl)cc1 (stereo not drawn)", 3.72],
  ["Clc1ccc(C(COCc2ccc(-c3ccccc3)cc2)Cn2cncn2)c(Cl)c1 (stereo not drawn)", 4.29],
  ["C=CCOCC(Cn1cncn1)c1ccc(Cl)cc1Cl (stereo not drawn)", 3.49],
  ["C=C(Cl)COCC(Cn1cncn1)c1ccc(Cl)cc1Cl (stereo not drawn)", 3.7],
  ["COc1cccc(COCC(Cn2cncn2)c2ccc(Cl)cc2Cl)c1 (stereo not drawn)", 3.85],
  ["Clc1ccc(C(COCc2ccc(OCc3ccccc3)cc2)Cn2cncn2)c(Cl)c1 (stereo not drawn)", 4.46],
  ["CC(C)(C)c1ccc(COCC(Cn2cncn2)c2ccc(Cl)cc2Cl)cc1 (stereo not drawn)", 4.84],
  ["N#CCCOCC(Cn1cncn1)c1ccc(Cl)cc1Cl (stereo not drawn)", 0.36],
  ["Clc1ccc(C(COCc2cccc(Oc3ccccc3)c2)Cn2cncn2)c(Cl)c1 (stereo not drawn)", 4.58]
]}
